B1: EHEE_rd3_0053 (parent)
chain: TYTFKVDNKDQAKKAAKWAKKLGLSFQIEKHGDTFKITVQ

Variants of: B1
PROTOCOL: folding stability dG (cDNA display proteolysis); higher = more stable
REPORTED CONDITIONS: PBS, room temperature
Everything with folding stability dG lower than 2 kcal/mol is FALSE; everything else, including exactly 2 kcal/mol, is TRUE.

{"columns": ["VARIANT CODE", "ANSWER LABEL"],
 "data": [
  ["F26L", "TRUE"],
  ["W18T", "FALSE"],
  ["H31D", "TRUE"],
  ["K20D", "FALSE"],
  ["L24D", "FALSE"],
  ["F4S", "FALSE"],
  ["T1S", "TRUE"],
  ["K13V", "TRUE"],
  ["K9F", "TRUE"],
  ["G23V", "FALSE"],
  ["F4E", "FALSE"],
  ["T1W", "TRUE"],
  ["H31Y", "TRUE"],
  ["V39F", "TRUE"],
  ["A19L", "TRUE"],
  ["V39C", "FALSE"],
  ["D7Y", "TRUE"],
  ["T3V", "TRUE"],
  ["K5D", "TRUE"],
  ["F4R", "FALSE"],
  ["A16N", "FALSE"],
  ["K5R", "TRUE"],
  ["I28A", "FALSE"],
  ["K36M", "TRUE"],
  ["G32T", "FALSE"],
  ["Y2P", "FALSE"],
  ["D33L", "TRUE"],
  ["D7G", "TRUE"],
  ["N8G", "TRUE"],
  ["D7C", "TRUE"],
  ["D33W", "FALSE"],
  ["Q40F", "TRUE"],
  ["F26S", "FALSE"],
  ["K21T", "TRUE"],
  ["K20L", "TRUE"],
  ["D10R", "TRUE"]
]}
